target: nucleolin (UniProt P19338); assay: SPR; settings: N = 2'-deoxyinosine at positions 12 and 24 (replacing T), BIAcore 3000, nucleolin on CM5 chip, 10 mM HEPES, 150 mM NaCl, 3 mM EDTA, 0.005% surfactant P20, pH 7.4, 25 °C
Sequence (P19338 whole entry): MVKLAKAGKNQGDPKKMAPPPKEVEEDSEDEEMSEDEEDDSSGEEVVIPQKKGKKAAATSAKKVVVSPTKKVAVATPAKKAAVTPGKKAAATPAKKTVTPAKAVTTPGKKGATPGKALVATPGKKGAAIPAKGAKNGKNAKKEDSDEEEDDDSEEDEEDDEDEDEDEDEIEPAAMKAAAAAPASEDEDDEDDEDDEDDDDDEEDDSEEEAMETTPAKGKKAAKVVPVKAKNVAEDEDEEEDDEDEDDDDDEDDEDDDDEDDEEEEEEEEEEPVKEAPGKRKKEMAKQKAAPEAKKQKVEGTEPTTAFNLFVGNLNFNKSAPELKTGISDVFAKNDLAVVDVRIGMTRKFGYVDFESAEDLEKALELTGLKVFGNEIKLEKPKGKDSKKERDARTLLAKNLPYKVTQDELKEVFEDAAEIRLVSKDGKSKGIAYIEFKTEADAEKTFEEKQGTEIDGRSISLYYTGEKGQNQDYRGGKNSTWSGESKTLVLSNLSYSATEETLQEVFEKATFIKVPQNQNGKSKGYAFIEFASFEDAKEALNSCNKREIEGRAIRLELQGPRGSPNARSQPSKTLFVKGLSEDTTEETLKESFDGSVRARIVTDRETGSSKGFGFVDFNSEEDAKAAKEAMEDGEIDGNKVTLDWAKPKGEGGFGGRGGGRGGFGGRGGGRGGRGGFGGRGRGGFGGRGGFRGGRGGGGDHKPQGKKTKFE
OBSERVABLE: Kd
Could you give the number and then its unit, please?

Give the measured Kd of GGTGGTGGTGGNTGTGGTGGTGGNGG [FAN-1224dI] .
32.2 nM

* * *

molecular target: nucleolin (UniProt P19338); test: SPR; details: N = 2'-deoxyinosine at positions 15 and 24 (replacing T), BIAcore 3000, nucleolin on CM5 chip, 10 mM HEPES, 150 mM NaCl, 3 mM EDTA, 0.005% surfactant P20, pH 7.4, 25 °C
OBSERVABLE: pKd
Recall that pKd is obtained by taking minus log10 of the concentration measured in molar.

Fill in the blank: the reported pKd of GGTGGTGGTGGTTGNGGTGGTGGNGG [FAN-1524dI] is ____.
7.43
